Molecular target: opioid δ receptor (Rattus norvegicus, UniProt P33533)
Construct: A membrane fraction of opioid δ receptor was prepared from the rat forebrain; from tissue; host or cells: rat forebrain membrane fraction
Sequence (P33533 whole entry): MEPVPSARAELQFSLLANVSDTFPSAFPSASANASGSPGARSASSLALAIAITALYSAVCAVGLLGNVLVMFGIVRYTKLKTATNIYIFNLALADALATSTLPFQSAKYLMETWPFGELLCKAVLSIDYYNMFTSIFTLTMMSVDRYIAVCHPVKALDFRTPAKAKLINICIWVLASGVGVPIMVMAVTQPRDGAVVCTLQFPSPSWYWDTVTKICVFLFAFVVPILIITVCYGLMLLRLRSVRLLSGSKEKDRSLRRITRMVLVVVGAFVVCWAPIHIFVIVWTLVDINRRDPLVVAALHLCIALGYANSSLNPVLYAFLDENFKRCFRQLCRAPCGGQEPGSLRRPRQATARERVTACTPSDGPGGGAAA
Experiment: Binding affinity for opioid δ receptor ([3H]-Naltrindole displacement, rat forebrain membrane fraction)
Details: [3H]-Naltrindole 1 nM, 25° C., 90 minutes, Ki calculated from IC50 by the Cheng-Prusoff equation
experimentalReadout: Ki (nM)
Report the value in nM with no unit label.

Ask | Need Ki, item CCN(CC)C(=O)c1ccc(C(CCN2CCC3(CC2)CNC(=O)c2cccc(C)c23)c2ccccc2OC)cc1 (stereo not shown)
Reply | 1210
